- EXPERIMENTAL_SYSTEM: T1, human IL-12RB1 with C-terminal FLAG tag, transiently expressed on HEK-293T cells (human, UniProt P42701 24-662)
- T1 construct: whole, on cells
- EXPERIMENT: FACS, periplasmic extract, HEK-293T
PARAMETER: FOB (fold)
Write down the numeric answer in fold and omit the unit.

# count of solved cases: 3
{"BINDER": "VHH233B1 (VHH) VHH: QVQLVESGGGLVQAGGSLRLSCAASRSISSFNEMAWYRQAPGEQRELVATIVSTVGFTNYADSVKGRFTISRDNAKNTVYLQMNSLKAEDTAVYYCNARRISTDYWGQGTQVTVSS", "DISPLAY_UNIT": "fold", "FOB": 146}
{"BINDER": "VHH154B1 (VHH) VHH: QVQLQESGGGLVQVGDSLRLSCVASGRIFGVNTRAWYRQAPGNQRELVAQISSGGNINYADSVKGRFTISMDKFTDTVYLQMNSLKPEDTAIYRCAAHRQHPYADVWGQGTQVSVSS", "DISPLAY_UNIT": "fold", "FOB": 24}
{"BINDER": "VHH32B1 (VHH) VHH: EVQLVESGGGLVQPGGSLRLSCAASGFTFQNYAMSWLRKAPGEGLEWVSVINSGGGSTLYADSVKGRFTISRDNAKNTLYLQMHSLKSEDTAVYFCAKRRDDSTFGSLLYTHRGQGTQVTVSS", "DISPLAY_UNIT": "fold", "FOB": 78}

Now look at this one.
Incoming: Entry VHH72B1 (VHH) VHH: EVQLVESGGGLVQAGGSLRLSCAASGLTFRNYAMAWFRQAPGKEREFVAGITWGGGLTHYVDSVKGRFTISRDNGKNTVYLQMNSLKSEDTAVYYCAGKTQGSTWYHLTPDGYDYWGQGTQVTVSS : reported FOB = ?
Outgoing: 117
